tested_on: T1, TFECDHis (extracellular domain of tissue factor, amino acid 1-251, with C-terminal His tag) (human, UniProt P13726 33-251)
T1 construct: range 1-251; The stated range 1-251 starts at residue 1 of NP-001984; also called extracellular domain of TF
test_method_notes: competition ELISA, inhibition of FVIIa (100 nM) binding to coated TFECDHis
measured_metric: max inhibition (%)
The response must be a number in % with no trailing unit.

# example entries with known answers
[
  {
    "binder": "anti-TF HuMab 109 (antibody, V domains shown, Human monoclonal antibody from HuMab mice) VH: QVQLVESGGGVVQPGRSLRLSCPASGFTFSIYAMHWVRQAPGKGLEWVAVVSNDGYNKYYADSVKGRFTISRDNSKDTLYLQMNSLRAEDTAVYYCARDGQLGRGYFDYWGQGTLVTVSS VL: EIVLTQSPATLSLSPGERAILSCRASQSVSSYLAWYQQKPGQAPRLLIYDASNRATGIPARFSGSGSGTDFTLTISSLEPEDFAVYYCQQRSNWPLTFGGGTKVEIK",
    "unit_abbrev": "%",
    "result_value": 90
  },
  {
    "binder": "anti-TF HuMab 013 (antibody, V domains shown, Human monoclonal antibody from HuMab mice; also called HuMab-TF-13) VH: EVQLVQSGAEVKKPGESLKISCKGSGYSFTSYWIGWVRQMPGKGLEWMGIIYPGDSDTRYSPSFQGQVTISADKSISTAYLQWSSLKASDTAMYYCARIHRGAGYSSSWPGAFDIWGQGTMVTVSS VL: DIQMTQSPSSLSASVGDRVTITCRASQGISRWLAWYQQKPEKAPKSLIYAASSLQSGVPSRFSGSGSGTDFTLTISSLQPEDFATYYCQQYDSDPITFGQGTRLEIK",
    "unit_abbrev": "%",
    "result_value": 27
  },
  {
    "binder": "anti-TF HuMab 087-Lg6 (antibody, V domains shown, Human monoclonal antibody from HuMab mice) VH: EVQLVQSGAEVKKPGESLKISCKGSGYSFTSCWIGWVRQMPGKGLEWMGIIYPGDSDTRYSPSFQGQVTISADKSISTAYLQWSSLKASDTAMYYCARHKLGMDHDAFDIWGQGTMVTVSS VL: DIQMTQSPSSLSASVGDRVTITCRASQGISSWLAWYQQKPEKAPKSLIYAASSLQSGVPSRFSGSGSGTDFTLTISSLQPEDFATYYCQQYNSYPPTFGQGTTVEVK",
    "unit_abbrev": "%",
    "result_value": 35
  },
  {
    "binder": "anti-TF HuMab 092-A09 (antibody, V domains shown, Human monoclonal antibody from HuMab mice) VH: EVQLLESGGGLVQPGGSLRLSCAASGFTFNNYAMSWVRQAPGKGLEWVSSISGSGGRTYYADSVKGRFTISRDNSKNTLFLQMNSLRAEDTAVYYCAKTPWGYYFDYWGQGTLVTVSS VL: DIQMTQSPSSLSASVGDRVTITCRASQGISSRLAWYQQKPEKAPKSLIYAASSLQSGVPSRFSGSGSGTDFTLTISSLQPEDFATYYCQQYNSYPYTFGQGTKLEIK",
    "unit_abbrev": "%",
    "result_value": 90
  }
]

// recorded max inhibition for anti-TF HuMab 025 (antibody, V domains shown, Human monoclonal antibody from HuMab mice) VH: QVQLVESGGGVVQPGRSLRLSCAASGFTFSRYAMHWVRQAPGKGLEWVAVISNDGYNDYYADSVKGRFTVSRDNSKNTLYLQMNSLRAEDTAVYYCARDGQLGRGYFDYWGQGTLVTVSS VL: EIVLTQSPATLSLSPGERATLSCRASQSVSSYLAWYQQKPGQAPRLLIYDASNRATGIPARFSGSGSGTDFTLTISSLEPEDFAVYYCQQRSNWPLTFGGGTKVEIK : 90

// field: max inhibition; key: anti-TF HuMab 111 (antibody, V domains shown, Human monoclonal antibody from HuMab mice) VH: QVQLVESGGGVVQPGRSLRLSCAGSGFTFNRYAMYWVRQAPGKGLDWVAVISNDGINKYYADSVKGRFTISRDNSKNTLYLQMNSLRAEDTAVYYCARDHTMVRGAFDYWGQGTLVTVSS VL: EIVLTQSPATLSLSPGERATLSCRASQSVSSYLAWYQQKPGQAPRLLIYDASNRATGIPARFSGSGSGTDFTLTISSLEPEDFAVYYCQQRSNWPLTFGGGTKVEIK ; value = 79

Lab note: anti-TF HuMab 003 (antibody, V domains shown, Human monoclonal antibody from HuMab mice; also called HuMab-TF-003) VH: QVQLVQSGAEVKKPGSSVKVSCKAPRGTFSYYTISWVRQAPGQGLEWMGRIIPILGVANYAQKFQGRVTITADKSTSTAYMELSSLRSEDTAVYYCAREGDRRYFDYWGQGTLVTVSS VL: AIQLTQSPSSLSASVGDRVTITCRASQDISSALAWYQQKPGKAPKLLIYDASILESGVPSRFSGSGSGTDFTLTISSLQPEDFATYYCQQFNSYPLTFGGGTKVEIK gave max inhibition of 89
